Taken from ChEMBL document CHEMBL1961873.

Target: Fibroblast growth factor receptor 3 (Homo sapiens) (UniProt P22607);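 further: each value is a mean percent inhibition of FGFR3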
Sequence (P22607 23-806 limits assumed): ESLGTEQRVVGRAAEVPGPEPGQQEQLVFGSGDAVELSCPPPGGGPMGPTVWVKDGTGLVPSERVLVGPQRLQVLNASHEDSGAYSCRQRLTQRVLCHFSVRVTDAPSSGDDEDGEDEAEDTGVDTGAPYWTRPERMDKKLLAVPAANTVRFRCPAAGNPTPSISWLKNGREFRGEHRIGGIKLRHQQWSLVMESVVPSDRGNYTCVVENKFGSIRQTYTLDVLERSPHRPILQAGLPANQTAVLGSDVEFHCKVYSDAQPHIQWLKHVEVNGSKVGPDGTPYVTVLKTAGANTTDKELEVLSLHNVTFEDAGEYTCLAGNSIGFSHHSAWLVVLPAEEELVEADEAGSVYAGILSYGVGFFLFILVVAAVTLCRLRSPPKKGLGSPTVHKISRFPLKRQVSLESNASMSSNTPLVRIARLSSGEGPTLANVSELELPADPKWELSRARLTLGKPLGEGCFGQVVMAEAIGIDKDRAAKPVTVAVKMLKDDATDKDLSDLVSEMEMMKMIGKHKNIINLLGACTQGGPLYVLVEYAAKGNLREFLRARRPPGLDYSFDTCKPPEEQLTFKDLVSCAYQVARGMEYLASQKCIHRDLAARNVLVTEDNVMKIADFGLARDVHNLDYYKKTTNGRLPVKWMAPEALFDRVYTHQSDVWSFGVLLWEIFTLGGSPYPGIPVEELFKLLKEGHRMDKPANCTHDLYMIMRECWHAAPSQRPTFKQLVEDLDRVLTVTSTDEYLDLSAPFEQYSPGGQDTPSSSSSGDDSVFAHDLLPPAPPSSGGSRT
Conditions: at 0.1 µM
Reported inhibition values for a set of compounds
outcome_measure: inhibition (%)

{"columns": ["molecule_smiles", "outcome_measure", "readout_unit", "measured_result"],
 "data": [
  ["CN(C)CCNC(=O)Nc1ccc(N(C)c2ccnc(Nc3ccc(CS(C)(=O)=O)cc3)n2)cc1", "inhibition", "%", 6.17],
  ["CCn1c(-c2nonc2N)nc2cncc(C(=O)NCCNC)c21", "inhibition", "%", 2],
  ["Cc1cc(O)cc(C)c1/C=C/c1cncc(C(=O)OC(C)(C)C)c1", "inhibition", "%", 7.81],
  ["Fc1cccc(COc2ccc(Nc3ncncc3C#Cc3ccccc3)cc2Cl)c1", "inhibition", "%", 4.99],
  ["O=C(O[C@H]1CN[C@H](C#Cc2cc3ncnc(Nc4ccc(OCc5cccc(F)c5)c(Cl)c4)c3s2)C1)N1CCOCC1", "inhibition", "%", 5.89],
  ["c1ccc(-c2n[nH]cc2-c2ccnc(-c3ccc(OCCn4ccnc4)cc3)c2)nc1", "inhibition", "%", 1.79],
  ["COc1cccc(Nc2nccc(-c3cnn4ncccc34)n2)c1", "inhibition", "%", 0.93],
  ["Cc1c2ccc(N(C)c3ccnc(Nc4cccc(S(N)(=O)=O)c4)n3)cc2nn1C", "inhibition", "%", 35.5],
  ["COc1ccc(-c2nn3ncccc3c2-c2ccnc(Nc3ccc(F)c(F)c3)n2)cc1", "inhibition", "%", 5.17],
  ["c1cnn2ncc(-c3ccnc(NCCCN4CCOCC4)n3)c2c1", "inhibition", "%", 3.61],
  ["FC(F)(F)CNc1nccc(-c2cnn3ncccc23)n1", "inhibition", "%", 3.73],
  ["CCCNc1cccc(-n2ncc3c(N/N=C/c4ccncc4)ncnc32)c1", "inhibition", "%", 0.74],
  ["CS(=O)(=O)CCNCc1ccc(-c2ccc3ncnc(Nc4ccc(OCc5cccc(C(F)(F)F)c5)cc4)c3c2)o1", "inhibition", "%", 9.13],
  ["OCCCNc1nccc(-c2c(-c3ccc(F)cc3)nn3cc(C(F)(F)F)ccc23)n1", "inhibition", "%", 2.01],
  ["Fc1ccc(Nc2nccc(-c3c(-c4ccc(C(F)(F)F)cc4)nn4ncccc34)n2)cc1F", "inhibition", "%", 6.52],
  ["COC(=O)Nc1nc2ccc(Oc3ccc(NC(=O)Nc4cc(C(F)(F)F)ccc4F)cc3)cc2s1", "inhibition", "%", 5.73],
  ["CC(C)c1ccc(-c2cc(-c3c[nH]nc3-c3ccccn3)ccn2)cc1", "inhibition", "%", 3.55],
  ["COc1cc(N2CCN(C(C)C)CC2)ccc1Nc1nc(Nc2cccc(F)c2C(=O)O)c2cc[nH]c2n1", "inhibition", "%", 4.65],
  ["O=C1Nc2ccccc2/C1=C1\\CCc2cc(O)ccc21", "inhibition", "%", 10.3],
  ["CCS(=O)(=O)c1ccc(OC)c(Nc2ncc(-c3cccc(C(C)=O)c3)o2)c1", "inhibition", "%", 20]
]}
